IC50 reference
Molecular target: DPP-4 (Homo sapiens)
Construct: purchased PROSPEC ENZ-375
Sequence (P27487 whole entry): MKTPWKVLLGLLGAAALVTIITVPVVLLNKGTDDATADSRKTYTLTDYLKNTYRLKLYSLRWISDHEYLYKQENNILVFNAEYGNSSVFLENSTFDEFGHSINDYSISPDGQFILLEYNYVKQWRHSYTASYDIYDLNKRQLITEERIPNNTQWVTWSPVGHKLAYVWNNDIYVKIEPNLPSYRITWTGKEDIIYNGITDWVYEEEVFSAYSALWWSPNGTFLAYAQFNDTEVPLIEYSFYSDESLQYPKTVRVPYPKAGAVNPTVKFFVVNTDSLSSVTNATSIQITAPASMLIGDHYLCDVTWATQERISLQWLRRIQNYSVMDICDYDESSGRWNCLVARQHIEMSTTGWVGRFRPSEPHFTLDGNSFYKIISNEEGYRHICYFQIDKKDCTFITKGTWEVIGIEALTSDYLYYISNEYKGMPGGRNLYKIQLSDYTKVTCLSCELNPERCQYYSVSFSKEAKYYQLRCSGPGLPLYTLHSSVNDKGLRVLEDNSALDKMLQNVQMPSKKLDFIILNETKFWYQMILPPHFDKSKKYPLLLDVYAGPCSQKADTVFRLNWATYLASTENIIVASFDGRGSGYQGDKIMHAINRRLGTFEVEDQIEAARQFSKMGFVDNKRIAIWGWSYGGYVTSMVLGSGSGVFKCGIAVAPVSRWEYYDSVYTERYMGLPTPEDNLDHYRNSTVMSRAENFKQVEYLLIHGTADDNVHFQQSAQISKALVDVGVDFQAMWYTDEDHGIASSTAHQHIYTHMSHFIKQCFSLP
Assay: DPP-4 inhibition assay (glycyl proline p-nitroaniline substrate)
Assay type: biochemical
Settings: average of three independent experiments, each in duplicate; 37 °C, 30 min

Use the examples below as a reference point.
1. CC(=O)c1c(O)c(Cc2c(O)c3c(c(C(C)=O)c2O)OC(C)(C)C=C3)c(O)c2c1OC(C)(C)C=C2	> 50 µM
2. CC1(C)C=Cc2c(O)c(Cc3c(O)c4c(c(C(=O)C=Cc5cccc(O)c5O)c3O)OC(C)(C)C=C4)c(O)c(C(=O)C=Cc3cccc(O)c3O)c2O1 (stereo in doubt)	> 50 µM
3. COc1c2c(c(C(=O)/C=C\c3ccccc3)c(O)c1Cc1c(OC)c3c(c(C(=O)/C=C\c4ccccc4)c1OC)OC(C)(C)C=C3)OC(C)(C)C=C2	> 50 µM
4. CC1(C)C=Cc2c(O)c(Cc3c(O)c4c(c(C(=O)C=Cc5ccc(O)cc5)c3O)OC(C)(C)C=C4)c(O)c(C(=O)C=Cc3ccc(O)cc3)c2O1 (stereo in doubt)	> 50 µM
5. CC(C)=CCc1c(O)cc(O)c(C(=O)/C=C/c2ccc(O)cc2)c1O [Compound 1, Desmethylxanthohumol, reference compound]	> 50 µM

// next entry
Prompt: For the compound CC1(C)C=Cc2c(O)c(Cc3c(O)c4c(c(C(=O)C=Cc5ccc(O)cc5O)c3O)OC(C)(C)C=C4)c(O)c(C(=O)C=Cc3ccc(O)cc3O)c2O1 (stereo in doubt) , what IC50 is on record?
Response: > 50 µM

###

pIC50 reference
Biological target: α-glucosidase from baker’s yeast (Saccharomyces cerevisiae, UniProt P53341)
Construct: purchased Sigma G5003
Sequence (P53341 whole entry): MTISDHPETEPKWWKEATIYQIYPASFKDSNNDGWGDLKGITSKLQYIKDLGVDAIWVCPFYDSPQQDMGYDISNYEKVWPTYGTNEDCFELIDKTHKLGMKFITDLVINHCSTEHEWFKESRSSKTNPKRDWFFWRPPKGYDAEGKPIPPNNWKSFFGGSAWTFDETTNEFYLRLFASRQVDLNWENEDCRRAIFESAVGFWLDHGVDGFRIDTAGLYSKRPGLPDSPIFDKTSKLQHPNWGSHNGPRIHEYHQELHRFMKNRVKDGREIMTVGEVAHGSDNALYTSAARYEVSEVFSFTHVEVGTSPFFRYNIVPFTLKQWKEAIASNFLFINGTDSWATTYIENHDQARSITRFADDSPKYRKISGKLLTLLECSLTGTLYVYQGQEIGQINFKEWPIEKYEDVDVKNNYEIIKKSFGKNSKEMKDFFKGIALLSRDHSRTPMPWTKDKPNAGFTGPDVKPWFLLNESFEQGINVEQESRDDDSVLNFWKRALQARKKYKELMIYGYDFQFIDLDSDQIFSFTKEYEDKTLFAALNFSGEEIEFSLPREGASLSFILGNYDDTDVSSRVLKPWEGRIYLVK
Experiment: biochemical
Format: biochemical
Details: average of three independent experiments, each in duplicate; 37 °C, 30 min; read-out: IC50 α-Glucosidase
Friendly reminder that pIC50 comes from taking -log10 of the concentration in mol/L.

1. CC(C)=CCc1c(O)cc(O)c(C(=O)/C=C/c2ccc(O)cc2)c1O [Compound 1, Desmethylxanthohumol, reference compound]	4.65
2. CC(=O)c1c(O)c(Cc2c(O)c3c(c(C(C)=O)c2O)OC(C)(C)C=C3)c(O)c2c1OC(C)(C)C=C2	5.15
3. CC1(C)C=Cc2c(O)cc(O)c(C(=O)/C=C/c3ccc(O)cc3)c2O1 [Compound 2, dehydrocyclodesmethylxanthohumol, reference compound]	5.01
4. CC1(C)C=Cc2c(O)c(Cc3c(O)c4c(c(C(=O)C=Cc5ccccc5)c3O)OC(C)(C)C=C4)c(O)c(C(=O)C=Cc3ccccc3)c2O1 (stereo in doubt)	5.23

Prompt: For the compound CC1(C)C=Cc2c(O)c(Cc3c(O)c4c(c(C(=O)C=Cc5ccsc5)c3O)OC(C)(C)C=C4)c(O)c(C(=O)C=Cc3ccsc3)c2O1 (stereo in doubt) , what pIC50 is on record?
Response: 6.66

###

Listed here: compounds with reported pIC50 for UniProt P27487.
pIC50: −log10 of the molar value.

1) CC1(C)C=Cc2c(O)c(Cc3c(O)c4c(c(C(=O)C=Cc5ccc(O)c(O)c5O)c3O)OC(C)(C)C=C4)c(O)c(C(=O)C=Cc3ccc(O)c(O)c3O)c2O1 (stereo in doubt)	4.58

Prompt: Notebook entry, UniProt P27487 assay: pIC50 of CC1(C)C=Cc2c(O)c(Cc3c(O)c4c(c(C(=O)C=Cc5ccc(F)cc5)c3O)OC(C)(C)C=C4)c(O)c(C(=O)C=Cc3ccc(F)cc3)c2O1 (stereo in doubt) = ?
Response: < 4.30

Prompt: Notebook entry, UniProt P27487 assay: pIC50 of CC1(C)C=Cc2c(O)c(Cc3c(O)c4c(c(C(=O)C=Cc5ccccc5)c3O)OC(C)(C)C=C4)c(O)c(C(=O)C=Cc3ccccc3)c2O1 (stereo in doubt) = ?
Response: < 4.30

###

Biological target: α-glucosidase from baker’s yeast (Saccharomyces cerevisiae, UniProt P53341)
Construct: purchased Sigma G5003
Experiment: biochemical
Type: biochemical
Measure: IC50 (nM)
Reply numerically in nM, unit not repeated.

Use the examples below as a reference point.
1. CC1(C)C=Cc2c(O)c(Cc3c(O)c4c(c(C(=O)C=Cc5ccc(O)c(O)c5O)c3O)OC(C)(C)C=C4)c(O)c(C(=O)C=Cc3ccc(O)c(O)c3O)c2O1 (stereo in doubt)	120
2. COc1c2c(c(C(=O)/C=C\c3ccccc3)c(O)c1Cc1c(OC)c3c(c(C(=O)/C=C\c4ccccc4)c1OC)OC(C)(C)C=C3)OC(C)(C)C=C2	370

Prompt: Notebook entry, α-glucosidase from baker’s yeast (Saccharomyces cerevisiae, UniProt P53341) assay: IC50 of CC1(C)C=Cc2c(O)c(Cc3c(O)c4c(c(C(=O)C=Cc5ccc(O)cc5)c3O)OC(C)(C)C=C4)c(O)c(C(=O)C=Cc3ccc(O)cc3)c2O1 (stereo in doubt) = ?
Response: 510

Prompt: Notebook entry, α-glucosidase from baker’s yeast (Saccharomyces cerevisiae, UniProt P53341) assay: IC50 of CC1(C)C=Cc2c(O)c(Cc3c(O)c4c(c(C(=O)C=Cc5ccc(O)cc5O)c3O)OC(C)(C)C=C4)c(O)c(C(=O)C=Cc3ccc(O)cc3O)c2O1 (stereo in doubt) = ?
Response: 240

Prompt: Notebook entry, α-glucosidase from baker’s yeast (Saccharomyces cerevisiae, UniProt P53341) assay: IC50 of COc1c2c(c(C(=O)/C=C\c3ccccc3)c(O)c1Cc1c(O)c(C(=O)/C=C\c3ccccc3)c3c(c1OC)C=CC(C)(C)O3)OC(C)(C)C=C2 = ?
Response: 3390

Prompt: Notebook entry, α-glucosidase from baker’s yeast (Saccharomyces cerevisiae, UniProt P53341) assay: IC50 of COc1ccc(C=CC(=O)c2c(O)c(Cc3c(O)c4c(c(C(=O)C=Cc5ccc(OC)cc5)c3O)OC(C)(C)C=C4)c(O)c3c2OC(C)(C)C=C3)cc1 (stereo in doubt) = ?
Response: 6410
